Listing: protection from staurosporine, viability EMAX, MCF10A cells of selected binders
System Tested: native human MET on living cells (human, UniProt P08581 25-1390)
Sequence (P08581 25-1390): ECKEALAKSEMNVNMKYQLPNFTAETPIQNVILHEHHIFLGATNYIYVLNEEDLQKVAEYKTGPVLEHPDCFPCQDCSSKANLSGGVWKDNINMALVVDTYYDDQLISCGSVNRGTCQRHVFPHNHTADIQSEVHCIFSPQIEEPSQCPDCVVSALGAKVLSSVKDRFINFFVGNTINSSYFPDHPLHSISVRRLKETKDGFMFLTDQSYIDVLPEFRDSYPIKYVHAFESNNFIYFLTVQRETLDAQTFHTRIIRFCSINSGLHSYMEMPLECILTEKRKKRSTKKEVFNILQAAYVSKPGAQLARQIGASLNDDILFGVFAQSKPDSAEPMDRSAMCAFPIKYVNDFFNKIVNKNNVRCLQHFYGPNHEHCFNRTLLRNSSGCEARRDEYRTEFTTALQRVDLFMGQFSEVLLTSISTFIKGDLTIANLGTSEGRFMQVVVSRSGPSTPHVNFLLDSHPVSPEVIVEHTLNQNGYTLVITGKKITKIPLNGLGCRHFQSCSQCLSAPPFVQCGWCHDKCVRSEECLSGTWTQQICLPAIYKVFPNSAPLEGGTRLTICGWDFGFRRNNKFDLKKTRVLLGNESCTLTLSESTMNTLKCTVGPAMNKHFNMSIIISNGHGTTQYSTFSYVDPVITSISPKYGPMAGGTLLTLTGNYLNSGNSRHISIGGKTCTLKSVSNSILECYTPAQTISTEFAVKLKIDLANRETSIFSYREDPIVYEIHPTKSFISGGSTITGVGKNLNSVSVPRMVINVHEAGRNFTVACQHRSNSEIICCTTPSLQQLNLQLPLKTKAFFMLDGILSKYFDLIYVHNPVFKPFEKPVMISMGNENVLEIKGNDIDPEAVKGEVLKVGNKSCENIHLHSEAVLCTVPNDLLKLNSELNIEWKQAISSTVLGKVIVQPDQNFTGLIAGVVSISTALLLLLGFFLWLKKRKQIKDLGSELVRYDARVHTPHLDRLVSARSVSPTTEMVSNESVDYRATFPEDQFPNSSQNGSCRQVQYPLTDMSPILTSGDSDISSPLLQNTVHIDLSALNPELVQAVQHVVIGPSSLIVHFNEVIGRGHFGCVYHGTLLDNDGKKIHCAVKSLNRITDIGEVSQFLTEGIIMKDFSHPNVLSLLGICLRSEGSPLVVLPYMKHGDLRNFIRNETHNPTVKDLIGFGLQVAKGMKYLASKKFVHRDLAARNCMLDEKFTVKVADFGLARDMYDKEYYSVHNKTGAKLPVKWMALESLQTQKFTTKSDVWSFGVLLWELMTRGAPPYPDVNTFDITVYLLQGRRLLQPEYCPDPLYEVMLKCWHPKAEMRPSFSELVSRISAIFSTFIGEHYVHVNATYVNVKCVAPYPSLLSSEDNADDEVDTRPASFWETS
Assay Info: cell-based or functional assay
# output: bare number, implied unit %

Past entries and their recorded results:
76H10 chimeric llama-human IgG1 mAb (antibody, V domains shown, llama VH on human IgG1 CH1-CH2-CH3, llama VL on human lambda CL) VH: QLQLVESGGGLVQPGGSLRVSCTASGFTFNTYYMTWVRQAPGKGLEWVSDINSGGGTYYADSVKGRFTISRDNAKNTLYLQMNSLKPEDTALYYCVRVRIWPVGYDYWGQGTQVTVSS VL: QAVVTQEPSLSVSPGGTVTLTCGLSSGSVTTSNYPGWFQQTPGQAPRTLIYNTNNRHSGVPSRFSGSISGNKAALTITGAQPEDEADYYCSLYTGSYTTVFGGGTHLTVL :: 22.8
71D6 chimeric llama-human IgG1 mAb (antibody, V domains shown, llama VH on human IgG1 CH1-CH2-CH3, llama VL on human lambda CL) VH: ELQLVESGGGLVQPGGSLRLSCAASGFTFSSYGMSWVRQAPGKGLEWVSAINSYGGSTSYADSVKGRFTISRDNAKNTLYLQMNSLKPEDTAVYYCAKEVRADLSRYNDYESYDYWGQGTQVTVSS VL: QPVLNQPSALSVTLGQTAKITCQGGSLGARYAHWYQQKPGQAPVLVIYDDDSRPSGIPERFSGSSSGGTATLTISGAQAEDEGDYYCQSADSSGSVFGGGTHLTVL :: 66.8
72F8 chimeric llama-human IgG1 mAb (antibody, V domains shown, llama VH on human IgG1 CH1-CH2-CH3, llama VL on human lambda CL) VH: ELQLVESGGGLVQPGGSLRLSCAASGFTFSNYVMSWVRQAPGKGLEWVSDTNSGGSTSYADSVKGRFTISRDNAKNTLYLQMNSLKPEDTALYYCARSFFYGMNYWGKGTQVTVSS VL: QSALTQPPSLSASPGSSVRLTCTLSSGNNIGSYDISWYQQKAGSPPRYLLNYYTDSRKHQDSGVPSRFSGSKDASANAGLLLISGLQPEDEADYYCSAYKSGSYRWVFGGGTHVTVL :: 35.8

Fill blank: measured protection from staurosporine, viability EMAX, MCF10A cells of the binder 71G3 chimeric llama-human IgG1 mAb (antibody, V domains shown, llama VH on human IgG1 CH1-CH2-CH3, llama VL on human lambda CL) VH: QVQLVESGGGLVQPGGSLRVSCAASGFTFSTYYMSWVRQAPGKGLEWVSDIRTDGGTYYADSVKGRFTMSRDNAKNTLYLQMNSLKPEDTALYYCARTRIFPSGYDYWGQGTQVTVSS VL: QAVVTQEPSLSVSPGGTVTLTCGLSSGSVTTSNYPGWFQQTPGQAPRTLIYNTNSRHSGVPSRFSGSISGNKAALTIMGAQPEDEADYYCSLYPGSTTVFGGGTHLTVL is ____. 65.2

Next up: 74C8 chimeric llama-human IgG1 mAb (antibody, V domains shown, llama VH on human IgG1 CH1-CH2-CH3, llama VL on human lambda CL) VH: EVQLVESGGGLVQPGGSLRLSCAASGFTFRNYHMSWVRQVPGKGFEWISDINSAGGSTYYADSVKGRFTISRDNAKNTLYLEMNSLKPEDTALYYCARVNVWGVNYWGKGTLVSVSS VL: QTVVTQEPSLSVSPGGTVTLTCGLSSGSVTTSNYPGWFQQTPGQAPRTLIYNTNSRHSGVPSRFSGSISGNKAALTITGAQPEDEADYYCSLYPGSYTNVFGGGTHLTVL 41.7

Another binder: 76G7 chimeric llama-human IgG1 mAb (antibody, V domains shown, llama VH on human IgG1 CH1-CH2-CH3, llama VL on human lambda CL) VH: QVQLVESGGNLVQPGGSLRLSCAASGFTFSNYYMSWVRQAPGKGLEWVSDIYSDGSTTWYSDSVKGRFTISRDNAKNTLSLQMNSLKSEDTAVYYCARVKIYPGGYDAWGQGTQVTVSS VL: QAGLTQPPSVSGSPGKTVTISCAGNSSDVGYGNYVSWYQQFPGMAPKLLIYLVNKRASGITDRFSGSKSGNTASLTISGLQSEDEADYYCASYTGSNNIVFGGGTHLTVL 51.9
